# assayed_system: T1, human MCH-1R (human, UniProt Q99705 1-353)
# T1 construct: also called MCH-R1
# T1 sequence (Q99705 whole entry, form in doubt): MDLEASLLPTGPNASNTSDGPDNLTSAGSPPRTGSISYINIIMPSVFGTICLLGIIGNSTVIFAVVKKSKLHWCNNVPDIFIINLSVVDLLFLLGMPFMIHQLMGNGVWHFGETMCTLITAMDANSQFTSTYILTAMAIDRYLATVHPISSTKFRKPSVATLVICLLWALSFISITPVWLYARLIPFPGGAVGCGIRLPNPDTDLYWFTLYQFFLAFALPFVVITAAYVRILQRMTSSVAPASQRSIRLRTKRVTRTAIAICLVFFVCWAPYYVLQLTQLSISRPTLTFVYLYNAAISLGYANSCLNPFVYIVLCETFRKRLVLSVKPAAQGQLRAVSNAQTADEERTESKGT
# assay_details: SPA competition with [125I]-human MCH (Phe13, Tyr19) on receptor membranes
# Protocol: For the SPA-based assay, WGA-PVT beads (NEN Life Sciences Products) were resuspended in Dulbecco's PBS with calcium and magnesium (500 mg beads in 4 ml PBS). […] Coated beads were kept on ice until use. […] Quantitation was performed by scintillation counting (TopCount device).
Bridges are numbered along the chain shown (N, C = ends).
quantity: IC50 (pM)
Respond with the bare value in pM.

I'd like to know its IC50. The binder in question is Ac-RCMLGRVYRPC-NH2 (disulfide 2-11 (inferred), positions numbered 6-16 as in hMCH) [truncated form of human MCH, SEQ. ID. NO. 2]
500

Ref: patent US20040147432A1
